Ref: patent US20260109763A1

target: T1, human PILRB extracellular domain (recombinant) (human, UniProt Q9UKJ0 20-191); assay: SPR
T1 construct: also called hPILRB
T1 sequence (Q9UKJ0 20-191 limits assumed): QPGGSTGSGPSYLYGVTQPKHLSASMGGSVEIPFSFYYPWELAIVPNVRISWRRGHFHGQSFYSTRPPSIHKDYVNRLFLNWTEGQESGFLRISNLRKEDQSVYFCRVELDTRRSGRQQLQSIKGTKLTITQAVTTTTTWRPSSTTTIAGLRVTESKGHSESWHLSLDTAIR
Exercise: state measured pKd for each of the binders provided.
Just so you know, pKd here is -log10 of the concentration in molar units; reply with that number alone.

The reported value for Anti-PILRA antibody clone 23 (antibody, V domains shown, Humanized; also called Ab.23) VH: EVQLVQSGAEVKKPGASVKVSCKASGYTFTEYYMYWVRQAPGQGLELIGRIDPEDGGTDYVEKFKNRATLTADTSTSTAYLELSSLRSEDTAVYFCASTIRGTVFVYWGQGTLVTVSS VL: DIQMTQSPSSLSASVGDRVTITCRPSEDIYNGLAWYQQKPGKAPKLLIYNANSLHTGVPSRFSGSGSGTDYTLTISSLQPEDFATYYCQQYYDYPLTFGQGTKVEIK in terms of pKd is 6.93

The reported value for Anti-PILRA antibody clone 15 (antibody, V domains shown, Humanized; also called Ab.15) VH: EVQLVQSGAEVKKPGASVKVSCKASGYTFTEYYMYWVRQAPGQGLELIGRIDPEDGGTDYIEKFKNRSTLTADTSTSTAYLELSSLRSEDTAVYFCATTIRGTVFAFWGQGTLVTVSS VL: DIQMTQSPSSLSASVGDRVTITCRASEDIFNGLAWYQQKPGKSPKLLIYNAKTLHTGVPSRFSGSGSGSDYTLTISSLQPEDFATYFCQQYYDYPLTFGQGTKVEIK in terms of pKd is 7.02

The reported value for Anti-PILRA antibody clone 12 (antibody, V domains shown, Humanized; also called Ab.12) VH: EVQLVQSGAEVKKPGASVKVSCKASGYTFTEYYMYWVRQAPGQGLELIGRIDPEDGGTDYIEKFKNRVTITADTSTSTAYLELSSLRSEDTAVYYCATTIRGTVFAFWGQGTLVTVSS VL: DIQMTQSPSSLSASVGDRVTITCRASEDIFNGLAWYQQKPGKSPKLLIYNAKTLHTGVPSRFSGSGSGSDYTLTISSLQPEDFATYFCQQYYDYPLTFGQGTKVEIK in terms of pKd is 6.58

The reported value for Anti-PILRA antibody clone 35 (antibody, V domains shown, Humanized; also called Ab.35) VH: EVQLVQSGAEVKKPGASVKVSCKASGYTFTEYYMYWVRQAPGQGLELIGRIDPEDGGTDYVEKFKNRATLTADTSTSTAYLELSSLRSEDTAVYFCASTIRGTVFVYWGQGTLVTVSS VL: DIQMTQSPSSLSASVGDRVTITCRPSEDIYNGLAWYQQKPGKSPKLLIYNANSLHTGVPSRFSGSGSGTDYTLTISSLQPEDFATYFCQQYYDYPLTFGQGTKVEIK in terms of pKd is 6.82
